Where do the numbers come from? From paper PMC5711770.

Target: HU(K13ac) (C-terminal His-tag) (Acinetobacter baumannii SK17, UniProt A0ABX6CHP0, K13ac)
Test: BLI; kon and koff several-fold lower than wt; BLI: 30 mM Tris pH 7.5, 100 mM NaCl, 0.02% Tween20, 0.5 mg/ml BSA, 25°C; EMSA: same buffer, 37°C 1 h, 250 ng DNA in 10 µl, 1% agarose in TAE; AFM: 10 mM HEPES pH 7.5, 4 mM MgCl2
Details: protein: recombinant; chain copies: 2; label: 5'-biotin on strand 1; (only one strand printed)
measurement_name: pKd
# pKd: negative log10 of molar concentration; output just the value

For this binder ( biotin-labeled dsDNA (BLI) (dsDNA) DNA 1: ATTAATATTTTCTTAAACTAATTTAAAAT DNA 2: ATTTTAAATTAGTTTAAGAAAATATTAAT ), measured pKd is 6.74
